pIC50 values, listed per item
# Measurement target: EGFR (Homo sapiens, UniProt P00533)
# Construct: Kinases are expressed as either kinase domains or full length constructs; made in house
# Sequence (P00533 25-1210, species assumed): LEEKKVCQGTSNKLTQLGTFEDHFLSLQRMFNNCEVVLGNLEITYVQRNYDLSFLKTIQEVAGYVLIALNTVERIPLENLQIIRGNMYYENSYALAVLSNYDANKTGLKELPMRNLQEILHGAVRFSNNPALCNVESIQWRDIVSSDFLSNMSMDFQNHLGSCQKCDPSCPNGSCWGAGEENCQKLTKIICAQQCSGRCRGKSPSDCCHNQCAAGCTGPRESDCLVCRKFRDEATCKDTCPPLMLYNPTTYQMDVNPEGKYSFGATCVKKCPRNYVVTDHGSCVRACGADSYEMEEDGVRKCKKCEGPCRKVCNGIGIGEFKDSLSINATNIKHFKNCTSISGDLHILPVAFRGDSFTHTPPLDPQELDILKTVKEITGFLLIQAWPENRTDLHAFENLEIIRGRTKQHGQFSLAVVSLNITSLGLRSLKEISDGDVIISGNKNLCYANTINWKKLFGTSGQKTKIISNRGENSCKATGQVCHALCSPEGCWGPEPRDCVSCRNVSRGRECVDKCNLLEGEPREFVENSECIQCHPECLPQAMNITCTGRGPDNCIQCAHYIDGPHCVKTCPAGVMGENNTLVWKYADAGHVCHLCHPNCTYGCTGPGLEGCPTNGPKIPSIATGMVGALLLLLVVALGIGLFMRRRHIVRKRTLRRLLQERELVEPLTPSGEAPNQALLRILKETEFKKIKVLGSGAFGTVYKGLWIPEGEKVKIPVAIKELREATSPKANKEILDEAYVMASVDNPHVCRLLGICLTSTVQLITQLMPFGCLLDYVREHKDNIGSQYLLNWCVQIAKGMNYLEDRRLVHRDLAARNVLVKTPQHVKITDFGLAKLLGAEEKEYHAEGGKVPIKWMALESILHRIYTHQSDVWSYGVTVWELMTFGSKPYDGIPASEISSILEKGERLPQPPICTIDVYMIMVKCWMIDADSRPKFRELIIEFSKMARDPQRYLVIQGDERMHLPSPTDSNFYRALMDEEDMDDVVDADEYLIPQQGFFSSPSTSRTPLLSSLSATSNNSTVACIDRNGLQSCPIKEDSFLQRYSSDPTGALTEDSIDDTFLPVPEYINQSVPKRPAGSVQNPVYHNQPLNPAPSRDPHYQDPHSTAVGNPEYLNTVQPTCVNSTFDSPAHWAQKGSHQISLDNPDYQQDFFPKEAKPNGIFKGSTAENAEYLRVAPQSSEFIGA
# Assay name: Kinase inhibition assay (33P transfer), EGFR
# Format: biochemical
# Condition set: Table 2, kinase inhibition class; read-out: EGFR-1
pIC50: −log10 of the molar value.

Sample answers from the record:
>>> reported_result("OCc1cccc(Nc2ncnc(Nc3cc(-c4ccco4)n[nH]3)n2)c1")
"5.16 to 5.94"
>>> reported_result("COc1cc(Nc2ncnc(Nc3cc(C)[nH]n3)n2)cc(OC)c1OC")
"4.90 to 5.01"

Lab book: pIC50 of COc1cc(Nc2ncnc(NN3CCCC3)n2)cc(OC)c1OC noted as < 4.89

Reported pIC50 of COc1cc(Nc2ncnc(Nc3cc(-c4ccc(C)cc4)n[nH]3)n2)cc(OC)c1OC : 5.26 to 6.03

For reference, reported pIC50 for COc1cc(Nc2ncnc(-c3ccnc(NCCCO)c3)n2)cc(OC)c1OC stands at < 4.96
